Tested on: NF-κ B activation
ASSAY DETAILS: Inhibitory activity of NF-κB activation, luciferase reporter assay under TNF-α stimulation in HepG2
Type: cell-based, human
MEASUREMENT CONTEXT: Drug concentration at 10 μg/mL; HepG2, TNF-α 40 ng/ml, 4 hours
OUTCOME MEASURE: Inhibitory rate against NF-κB activation (%)
Entry rule: numbers only, all in %.

COc1cc(Cl)nc(NC(=O)c2cc(Cl)ccc2O)n1    78.9
O=C(Nc1cccc(Br)n1)c1cc(Cl)ccc1O    95.1

*Q* Missing value: Inhibitory rate against NF-κB activation (%), NF-κ B activation, entry O=C(Nc1cc(C(F)(F)F)cc(C(F)(F)F)c1)c1cccc(O)c1O . Fill in?
*A* 91.9

----------
System: NF-κ B activation
ASSAY DETAILS: Inhibitory activity of NF-κB activation, luciferase reporter assay under TNF-α stimulation in HepG2
Assay type: cell-based, human
MEASUREMENT CONTEXT: Drug concentration at 1 μg/mL; HepG2, TNF-α 40 ng/ml, 4 hours
OUTCOME MEASURE: Inhibitory rate against NF-κB activation (%)

Example entries begin here.
Cc1cc(Br)cc(C(=O)Nc2cc(C(F)(F)F)cc(C(F)(F)F)c2)c1O [compound 258]    >99.9%
O=C(Nc1cc(Cl)cc(Cl)c1)c1c(O)ccc2ccccc12 [compound 182]    85.3%
O=C(Nc1cc(C(F)(F)F)cc(C(F)(F)F)c1)c1ccc(F)cc1O [compound 250]    94.2%
Cc1ccc(C)c(NC(=O)c2cc(Cl)ccc2O)c1 [compound 153]    88.3%
O=C(Nc1cc(C(F)(F)F)cc(C(F)(F)F)c1)c1c(O)c(Cl)cc(Cl)c1Cl [compound 61]    95.1%

*Q* What does the record list as Inhibitory rate against NF-κB activation (%) for O=C(Nc1cc(C(F)(F)F)ccc1Oc1ccc2ccccc2c1)c1cc(Cl)ccc1O [compound 110] ?
*A* 96.5%

*Q* Repeat with CC(=O)Oc1ccc(Cl)cc1C(=O)Nc1cc(C(F)(F)F)ccc1C(F)(F)F [compound 82]
*A* 94.0%

*Q* Could you do the same for COc1ccc(C)c(NC(=O)c2cc(Cl)ccc2O)c1 [compound 160] , please?
*A* 69.6%

*Q* Now consider CCNC(=O)c1sc(NC(=O)c2cc(Br)ccc2O)nc1-c1ccccc1 [compound 221] .
*A* 51.9%

*Q* And COc1ccc(C(C)(C)C)cc1NC(=O)c1cc(Cl)ccc1OC(C)=O [compound 136] ?
*A* 91.0%

*Q* Try this molecule too: Cc1sc(NC(=O)c2cc(Br)ccc2O)nc1-c1ccccc1 [compound 192]
*A* 83.6%

*Q* Ok, now CC(=O)Oc1ccc(Cl)cc1C(=O)Nc1cc(C(F)(F)F)cc(C(F)(F)F)c1 [compound 5]
*A* 96.5%

*Q* Entry N#Cc1ccc(Cl)cc1NC(=O)c1cc(Cl)ccc1O [compound 154] please
*A* 83.0%

*Q* // same read-out, input: COc1ccc(C(F)(F)F)cc1NC(=O)c1cc(Cl)ccc1O [compound 95]
*A* 91.8%

*Q* O=C(Nc1cc(C(F)(F)F)ccc1Oc1ccc(Cl)cc1Cl)c1cc(Cl)ccc1O [compound 111] , same question.
*A* 96.5%

----------
System: NF-κ B activation
ASSAY DETAILS: Inhibitory activity of NF-κB activation, luciferase reporter assay under TNF-α stimulation in HepG2
Type: cell-based, human
MEASUREMENT CONTEXT: Drug concentration at 1 μg/mL; HepG2, TNF-α 40 ng/ml, 4 hours
Hi, to clarify the labels: true covers Inhibitory rate against NF-κB activation (%) from 80% upward, false covers anything below 80%.

// below: answered molecules
O=C(Nc1cc(C(F)(F)F)cc(C(F)(F)F)c1)c1ccc(O)cc1O    false
COc1ccc(-n2cccc2)c(NC(=O)c2cc(Cl)ccc2O)c1    false
COc1ccc(C(=O)Nc2cc(C(F)(F)F)cc(C(F)(F)F)c2)c(O)c1    true
O=C(Nc1cc(C(F)(F)F)cc(C(F)(F)F)c1)c1cc(Br)ccc1O    true
O=C(Nc1cc(C(F)(F)F)ccc1[N+](=O)[O-])c1cc(Cl)ccc1O    true

*Q* Say whether O=C(Nc1cc(C(F)(F)F)cc(C(F)(F)F)c1)c1cc(N=Nc2ccc([N+](=O)[O-])cc2)ccc1O shows Inhibitory rate against NF-κB activation (%) of 80% or more.
*A* true

----------
System: NF-κ B activation
ASSAY DETAILS: Inhibitory activity of NF-κB activation, luciferase reporter assay under TNF-α stimulation in HepG2
Format: cell-based, human
MEASUREMENT CONTEXT: Drug concentration at 1 μg/mL; HepG2, TNF-α 40 ng/ml, 4 hours
Procedure: Measurement of Inhibitory Activity of NF-κB activation Using a transfection reagent (Effectene; QIAGEN), the human hepatoma cell strain HepG2 was transfected with a plasmid (pNF κ B-Luc Reporter Plasmid; […]) integrated with an oligonucleotide having five tandem copies of NF-κ B binding sequences([…]) on a upstream region of firefly luciferase gene(Luc) according to the QIAGEN's protocol, and the cells were incubated for 6 to 24 hours. […]
Think of 90% as a floor: if Inhibitory rate against NF-κB activation (%) stands on it or above, it is 1; beneath it, -1.

*Q* Item CCN(CC)S(=O)(=O)c1ccc(OC)c(NC(=O)c2cc(Cl)ccc2O)c1 [compound 155] with Inhibitory rate against NF-κB activation (%) of 90% or above?
*A* -1

*Q* Quick one: Cc1ccc(C(F)(F)F)cc1NC(=O)c1cc(Cl)ccc1O [compound 92]
*A* 1

*Q* Queued: Cc1ccc(C(=O)C(C)(C)C)cc1NC(=O)c1cc(Cl)ccc1O [compound 166]
*A* 1

*Q* Now consider O=C(Nc1cc(C(F)(F)F)ccc1Br)c1cc(Cl)ccc1O [compound 107] .
*A* 1

*Q* Follow-up item: CC(=O)Nc1cc(O)c(C(=O)Nc2cc(C(F)(F)F)cc(C(F)(F)F)c2)cc1Cl [compound 50]
*A* -1

*Q* Consider next the molecule O=C(Nc1cc(Br)cc(C(F)(F)F)c1)c1cc(Br)ccc1O [compound 86] in the same way.
*A* 1

*Q* What do you get for COc1ccc(C(C)(C)C)cc1NC(=O)c1cc(C)ccc1O [compound 149] ?
*A* -1

*Q* Try the molecule CC(C)(C)c1nc(NC(=O)c2cc(Br)ccc2O)sc1C#N [compound 189]
*A* -1

----------
Tested on: NF-κ B activation
ASSAY DETAILS: Inhibitory activity of NF-κB activation, luciferase reporter assay under TNF-α stimulation in HepG2
Assay type: cell-based, human
MEASUREMENT CONTEXT: Drug concentration at 10 μg/mL; HepG2, TNF-α 40 ng/ml, 4 hours
Experimental: Measurement of Inhibitory Activity of NF-κB activation Using a transfection reagent (Effectene; QIAGEN), the human hepatoma cell strain HepG2 was transfected with a plasmid (pNF κ B-Luc Reporter Plasmid; […]) integrated with an oligonucleotide having five tandem copies of NF-κ B binding sequences([…]) on a upstream region of firefly luciferase gene(Luc) according to the QIAGEN's protocol, and the cells were incubated for 6 to 24 hours. […]
OUTCOME MEASURE: Inhibitory rate against NF-κB activation (%)
Record the value in %, omitting the unit from your answer.

Some molecules with recorded Inhibitory rate against NF-κB activation (%):
O=C(Nc1cc(Br)cc(C(F)(F)F)c1)c1cc(Br)ccc1O    98.7
COc1cccc(C(=O)Nc2cc(C(F)(F)F)cc(C(F)(F)F)c2)c1O    94.7
O=C(O)Cc1sc(NC(=O)c2cc(Br)ccc2O)nc1-c1ccccc1    72.1
COc1ccc(C(C)(C)C)cc1NC(=O)c1cc(Cl)ccc1OC(C)=O    99.4
O=C(Nc1cc(C(F)(F)F)ccc1Oc1ccc(Cl)cc1Cl)c1cc(Cl)ccc1O    99.7
O=C(Nc1cc(C(F)(F)F)cc(C(F)(F)F)c1)c1cc(CCc2ccccc2)ccc1O    98.3
COc1ccc(C(=O)Nc2cc(C(F)(F)F)cc(C(F)(F)F)c2)c(O)c1    89.8
C#Cc1ccc(O)c(C(=O)Nc2cc(C(F)(F)F)cc(C(F)(F)F)c2)c1    90.1
CN(C)S(=O)(=O)c1ccc(O)c(C(=O)Nc2cc(C(F)(F)F)cc(C(F)(F)F)c2)c1    95.9
O=C(Nc1cc(C(F)(F)F)cc(C(F)(F)F)c1)c1cc(Br)ccc1O    98.6

*Q* // returns reported Inhibitory rate against NF-κB activation (%) for input CCC(C)(C)c1ccc(Oc2ccccc2)c(NC(=O)c2cc(Cl)ccc2O)c1
*A* 98.3

*Q* Now this one: O=C(Nc1cc(N2CCOCC2)ccc1[N+](=O)[O-])c1cc(Cl)ccc1O
*A* 89.6
